Tested on: NCI-H522 lung
Test: NCI tumour cell line growth inhibition, 48 h
Hi, to clarify the labels: Met covers TGI from 10 µM upward, Not met covers anything below 10 µM.

Incoming: Dear colleague, could you confirm whether Clc1ccc2c(NCCNc3nc(-c4ccccc4)cc(-c4ccccc4)n3)ccnc2c1 has TGI at or above 10 µM?
Outgoing: Not met

Incoming: Try this compound too: c1ccc(C2CC(N3CCOCC3)=Nc3ccccc3N2)cc1 (stereo unspecified)
Outgoing: Met

Incoming: Try this compound too: CC(=O)Nc1ccc(/C=c2\sc3nnc(/C=C/c4ccccc4)n3c2=O)cc1
Outgoing: Met

Incoming: Try this compound too: N#Cc1ccc(-n2cnc(NC(=O)[C@H]3CCN(C#N)C3)c2)cc1
Outgoing: Not met

Incoming: Try this compound too: CSC(=S)NN=C1CCCCC1
Outgoing: Met

Incoming: Try this compound too: CN1N=C(c2ccncc2)OC1c1ccc(Cl)c(Cl)c1 (stereo unspecified)
Outgoing: Met

Incoming: Try this compound too: COC(=O)c1ccccc1CC1Cc2cc3c(cc2C1)CCC3
Outgoing: Met

Incoming: Try this compound too: COCCN1C2=CCCCC2=Nc2c(N)nc(N)nc21
Outgoing: Met

Incoming: Try this compound too: CCOC(=O)c1c(C)c2c(n1C)CSc1cc(S(=O)(=O)c3ccccc3)c(=O)[nH]c1-2
Outgoing: Met

Incoming: Try this compound too: C[C@]12CC[C@@H]3c4ccc(O)cc4CC[C@H]3[C@@H]1CC[C@@H]2NS(=O)(=O)c1cccc(Br)c1
Outgoing: Met

Incoming: Try this compound too: CCNC1CC(C(C)(C)NCC)CC=C1C (stereo unspecified)
Outgoing: Met

----------
Tested on: KM12 colon
Assay: NCI tumour cell line growth inhibition, 48 h
Can you tell me TGI for the items I'm about to list?

Incoming: Reported TGI for Nc1cc(C(F)F)c(-c2nc(N3[C@@H]4CC[C@H]3COC4)nc(N3[C@@H]4CC[C@H]3COC4)n2)cn1 : what is it?
Outgoing: > 100 µM

Incoming: Try this molecule too: O=C(Nc1cc(C(F)(F)F)ccc1Cl)C(=O)C(C(=O)c1ccc2ccccc2c1)C1OC(=O)c2ccccc21 (configuration not stated)
Outgoing: 27.4 µM

Incoming: Try this molecule too: COC(=O)C(Cc1ccccc1)NS(=O)(=O)c1ccc(-c2c3nc(c(-c4ccc(S(=O)(=O)NC(Cc5ccccc5)C(=O)OC)cc4)c4ccc([nH]4)c(-c4ccc(S(=O)(=O)NC(Cc5ccccc5)C(=O)OC)cc4)c4nc(c(-c5ccc(S(=O)(=O)NC(Cc6ccccc6)C(=O)OC)cc5)c5ccc2[nH]5)C=C4)C=C3)cc1 (configuration not stated)
Outgoing: > 100 µM

Incoming: Try this molecule too: COCCN1C2=CCCCC2=Nc2c(N)nc(N)nc21
Outgoing: > 100 µM

Incoming: Try this molecule too: COc1ccc(-c2nc3ccc(C)cc3o2)c(OC)c1
Outgoing: 40.4 µM

Incoming: Try this molecule too: CC(C)C1OCC(CO)CO1 (configuration not stated)
Outgoing: > 100 µM

Incoming: Try this molecule too: Cc1cc(S(=O)(=O)Nc2nc(N)n(C)n2)c(S)cc1Cl
Outgoing: > 10 µM

----------
Test system: MOLT-4 leukemia
Experiment: NCI tumour cell line growth inhibition, 48 h
MEASUREMENT KIND: TGI

Incoming: Give the reported TGI for C=CCC1(O)c2cccc(O)c2C(=O)c2c(O)cccc21 (system: MOLT-4 leukemia).
Outgoing: > 100 µM

Incoming: Try this compound too: COc1cc(/C=C2\C(=O)N(c3c(Cl)cccc3Cl)c3ccccc32)cc(OC)c1O
Outgoing: 20.4 µM

Incoming: Try this compound too: COc1ccc(-c2nc3ccc(C)cc3o2)c(OC)c1
Outgoing: 52.9 µM

Incoming: Try this compound too: COc1ccc2cc(C(=O)/C=C/c3ccc(OC)c(OC)c3)ccc2c1
Outgoing: > 100 µM

Incoming: Try this compound too: O=c1cccc(C#CCCCCOC2CCCO2)o1 (stereo not drawn)
Outgoing: > 30.8 µM

Incoming: Try this compound too: CCOC(=O)c1cc(C(=O)c2cc(OC)cc(OC)c2)n2ncccc12
Outgoing: > 100 µM

Incoming: Try this compound too: Cc1c2n(c3ccccc13)CC1C2N(C)OC1(C)C (stereo not drawn)
Outgoing: > 100 µM

Incoming: Try this compound too: COc1cccc(/C=N/n2c(-c3ccccc3)n[nH]c2=O)c1
Outgoing: > 100 µM

Incoming: Try this compound too: CCCNc1[nH]c(C(C)=O)c(N)c1C(=S)Nc1ccccc1
Outgoing: > 100 µM

Incoming: Try this compound too: C=C1CC2(OC1=O)c1ccccc1CCc1ccccc12
Outgoing: 7.18 µM

Incoming: Try this compound too: Cc1cc(NC(=O)CCc2ccc(N3C(N)=NC(N)=NC3(C)C)cc2)ccc1S(=O)(=O)F
Outgoing: > 100 µM

Incoming: Try this compound too: COC(=O)C1=NN2c3ccccc3CN([C@@H](C)c3ccccc3)C(=O)[C@@H]2C1
Outgoing: 46.5 µM

Incoming: Try this compound too: Cc1cc(S(=O)(=O)Nc2nc(N)n(C)n2)c(S)cc1Cl
Outgoing: > 10 µM

----------
Tested on: OVCAR-4 ovarian
Test: NCI tumour cell line growth inhibition, 48 h
Can you tell me TGI for the items I'm about to list?

Incoming: Reported TGI for C/C=C(/C)C(=O)OC1C=C(CO)C(=O)C(OC(=O)/C(C)=C\C)C1C(C)C (stereo not given) : what is it?
Outgoing: 2.49 µM

Incoming: Try this compound too: CC(C)C1OCC(CO)CO1 (stereo not given)
Outgoing: > 100 µM

Incoming: Try this compound too: CSc1s[s+]c(SC)c1[O-]
Outgoing: > 100 µM

Incoming: Try this compound too: CC1=CC(C)C(O)C(C)/C=C/C(O)C/C=C(/C)C(=O)CC(O)C(C)\C=C/C=C/C=C\C(=O)NC2=C(O)c3cc(C)c(O)c(c3C(=O)C2=O)C1=O (stereo not given)
Outgoing: > 100 µM

Incoming: Try this compound too: COc1ccc(-c2nc3ccc(C)cc3o2)c(OC)c1
Outgoing: 74.1 µM

Incoming: Try this compound too: N#CC1=C(N)Oc2c(sc3c(F)cccc23)C1c1ccc([N+](=O)[O-])cc1 (stereo not given)
Outgoing: 1.9 µM

Incoming: Try this compound too: Cc1ccc2c(c1)NC(=O)C(N=[N+]=[N-])(c1ccccc1)C2=O (stereo not given)
Outgoing: > 100 µM

Incoming: Try this compound too: O=S(=O)(Nc1ccc(Cl)c(C(F)(F)F)c1)c1ccc(-c2cnc(C3CC3)o2)cc1
Outgoing: 9.75 µM

Incoming: Try this compound too: CCCCCCCCCCCCCCCCCCNc1ccn(C2OC(CO)C(OP(=O)(O)OCC3CCC(n4ccc(N)nc4=O)O3)C2O)c(=O)n1 (stereo not given)
Outgoing: > 100 µM

Incoming: Try this compound too: O=C=Nc1ccc(Cc2ccc(N=C=O)cc2)cc1 (tested in a mixture with another compound)
Outgoing: > 25 µg/mL

Incoming: Try this compound too: COc1ccc2[nH]cc(/C=C3\C(=O)Nc4ccccc43)c2c1
Outgoing: 60.3 µM

Incoming: Try this compound too: C[n+]1c2ccccc2c(NC(CCC(N)=O)C(=O)O)c2ccccc21 (stereo not given)
Outgoing: > 100 µM

Incoming: Try this compound too: CC(C)NC(C)Cc1ccccc1 (stereo not given)
Outgoing: > 100 µM

Incoming: Try this compound too: C(/COc1cccnc1)=N\NC1=NCCN1
Outgoing: > 100 µM

Incoming: Try this compound too: COc1cc(OC)c(/C=N/N=C(\N)NO)c(OC)c1
Outgoing: > 100 µM

Incoming: Try this compound too: Nc1nc(Nc2ccc(Cl)cc2)sc1C(=O)c1cc2ccccc2oc1=O
Outgoing: > 100 µM

Incoming: Try this compound too: Cc1cc2c3c(ccc4ncc(c43)CN2c2ccc(NS(C)(=O)=O)cc2)[nH]1
Outgoing: > 100 µM

Incoming: Try this compound too: Cc1ccccc1NC(=O)C(=O)Cc1nc2ccccc2s1
Outgoing: > 100 µM

Incoming: Try this compound too: COc1cc2cc(C(=O)N3CC(COS(C)(=O)=O)c4c3cc([N+](=O)[O-])c3ccccc43)[nH]c2c(OC)c1OC (stereo not given)
Outgoing: > 31.6 µM

Incoming: Try this compound too: Cc1ccc(S(=O)(=O)C2=c3ncccc3=C3C(=O)c4ccccc4C(=O)C32)cc1 (stereo not given)
Outgoing: 64.4 µM

----------
Can you tell me GI50 for the items I'm about to list?
Test system: SF-295 CNS
Assay: NCI tumour cell line growth inhibition, 48 h

Incoming: Reported GI50 for C=CCSc1n[nH]c(-c2cccs2)n1 : what is it?
Outgoing: > 100 µM

Incoming: Try this compound too: CS(=O)(=O)c1ccc(C(F)(F)F)cc1NC(=O)Nc1cnc(Oc2ccc(-c3cc(Cl)cnc3N)cc2)nc1
Outgoing: 1.99 µM

Incoming: Try this compound too: O=c1cccc(C#CCCCCOC2CCCO2)o1 (configuration not stated)
Outgoing: 18.4 µM

Incoming: Try this compound too: C/C=C(/C)C(=O)OC1C=C(CO)C(=O)C(OC(=O)/C(C)=C\C)C1C(C)C (configuration not stated)
Outgoing: 1.82 µM

Incoming: Try this compound too: COC(=O)c1c2c(c(C)[n+]([O-])c1C)C(=O)C(NCc1ccc(F)c(Cl)c1)=CC2=O
Outgoing: 1.62 µM

Incoming: Try this compound too: COC(=O)/C(=C/N1CCN(C(=O)c2ccco2)C1=S)C(C)=O
Outgoing: 18.6 µM

Incoming: Try this compound too: O=S(=O)(Nc1ccc(Cl)c(C(F)(F)F)c1)c1ccc(-c2cnc(C3CC3)o2)cc1
Outgoing: 0.131 µM
